Tested on: MDA-MB-468 breast
Assay: NCI tumour cell line growth inhibition, 48 h
measured-quantity: TGI (µM)
Give the quantity in µM, number only.

compound	scale-unit	TGI
Cc1cc(Nc2ncc(Cl)c(Nc3ccccc3S(=O)(=O)C(C)C)n2)c(OC(C)C)cc1C1CCNCC1	µM	3.14

**Query** Which value of TGI has been reported for `O=C(/C=C/c1ccc2c(c1)OCO2)c1ccccc1` in the records?
**Result** 28

**Query** Likewise for `O=S(=O)(NCCNc1cc(-c2cn(-c3ccccc3)nc2-c2cccc(O)c2)ccn1)c1ccc(F)cc1` ?
**Result** 5.33

**Query** Next: `C/C(=C\c1ccn(-c2ccc(N)cc2C(F)(F)F)n1)[C@@H]1C[C@@H]2O[C@]2(C)CCC[C@H](C)[C@H](O)[C@@H](C)C(=O)C(C)(C)[C@@H](O)CC(=O)O1`
**Result** 0.873

**Query** Query `Cc1cccc(Oc2ccc(Nc3ncnc4ccc(NC(=O)CN5CCN(C)CC5)cc34)cc2Cl)c1` next
**Result** 2.07

**Query** Check O=C1CC(N2C(=O)/C(=C/C(Cl)=C\c3ccc([N+](=O)[O-])cc3)SC2=S)C(=O)N1c1ccc(Cl)cc1 (centres undefined) too.
**Result** 3.1

**Query** Proceed to `Cc1cc(S(=O)(=O)/N=C(\N)n2nc(C)c(C)c2C)c(SCc2ccccc2)cc1Cl`
**Result** 92.4
